assay: yeast display, Sf9 membrane polyspecificity reagent, FACS + sequencing; frameworks hold sequencing errors
Metric Name: polyreactivity (PSR sort gate)

>  <Ordered Residues>
QVHLEDSGGGLVQAGVILRLSSPASGSIFVYNAMGWYRPAPGKERELVAAISSSGGSTYYADSVKGRFTISRDNAKNTVYLQMNSLKPEDTAVYYCAAEAVRKVPSYYSYAYYYWGQGTQVTVSS

>  <Metric Name>
polyreactivity (PSR sort gate)

>  <Experimental Result>
high polyreactivity

$$$$
>  <Ordered Residues>
QVQLVESGGGLVQAGGSLRLSCAASGSIFGSYTMGWYRQAPGKERELVAAINASGGRTYYADSVKGRFTISRDNAKNTVYLQMNSLKPEDTAVYYCNKATYYQTYDYWGQGTQVTVSS

>  <Metric Name>
polyreactivity (PSR sort gate)

>  <Experimental Result>
high polyreactivity

$$$$
>  <Ordered Residues>
QVQLVDSGGGLVQAGGSLRLSCAASGLTCRKYTMGWYRQAPGKERELVAAISFRGGSTYYADSVKGRFTISRDNAKNTVYLQMNSLKPEDTAVYYCNARKRYSTDPGDYWGQGTQVTVSS

>  <Metric Name>
polyreactivity (PSR sort gate)

>  <Experimental Result>
high polyreactivity

$$$$
>  <Ordered Residues>
QVQLVESGGGLVQAGGSLRLSCAASGRIFKSYAMGWYRQAPGKERELVAAISRGGRTNYADSVKGRFTISRDNAKNTVYLQMNSLKPEDTAFYYCAARFVVQGHSSPYDYWGQGTQVTVSS

>  <Metric Name>
polyreactivity (PSR sort gate)

>  <Experimental Result>
high polyreactivity

$$$$

Fill in: polyreactivity (PSR sort gate) of QDQLVESGGGFVQAGGSLRLSCAASGFIYDNEMGWYRQAPGKERELVASITSRGGNTYYADSVKGRFTISRDNAKNTVYLQMNSLKPEETAVYYCAARYYWGSYGPYGYWGQGTQLTVSS is ___ high polyreactivity
